# assay: NCI Yeast Anticancer Drug Screen. Data for the sgs1 mgt1 strain (AID 161)
# assay.setup: S. cerevisiae sgs1 mgt1 strain, at 5.0 µM (retest, dose inferred, filed as 0.5)
This is part of a sample that, as a whole, favours compounds with a hit. Of some 79,000 tested, about 15% had one in any assay. Calls of active or inactive are those of the source. No stated cut-off is given here; in the data, active means growth inhibition above about 70%; inactive means the rest.
Response enum: True (active), False (inactive)

O=[As]c1ccc(Cl)cc1Cl (configuration not stated)
True

Ask: Hello, I am checking results. What call was entered for O=C(CBr)Nc1ccccc1Cl ?
Reply: False

Ask: Hello, I am checking results. What call was entered for C[CH2][Sn]([Cl])([CH2]C)[O][Sn]([Cl])([CH2]C)[CH2]C ?
Reply: False

Ask: Hello, I am checking results. What call was entered for N#CC(=C=N)N=C(F)C(C#N)=C(C#N)C#N ?
Reply: False

Ask: Hello, I am checking results. What call was entered for O=C(Nc1cc(Cl)ccc1Cl)C(Cl)(Cl)Cl ?
Reply: False

Ask: Hello, I am checking results. What call was entered for O=C(Cl)c1ccccn1 ?
Reply: False

Ask: Hello, I am checking results. What call was entered for O=C(O)C1C2CCC(C2)C1c1ccccc1 (configuration not stated) ?
Reply: False
